experimental-target: T1, CD3-specific binding domain (SEQ ID NO: 3) (biotinylated when used as immobilized SPR ligand (site not stated))
T1 construct: also called α-CD3 DARPin
T1 chain: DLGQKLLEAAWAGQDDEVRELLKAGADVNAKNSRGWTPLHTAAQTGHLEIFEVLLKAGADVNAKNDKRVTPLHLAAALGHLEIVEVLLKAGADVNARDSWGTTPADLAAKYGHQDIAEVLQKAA
procedure-text: SPR (ProteOn), biotinylated CD3-specific binding domain immobilized, multi-trace 50-0.195 nM, 25 C
The following binders are listed with their measured Kd values.
Please answer using the number first and the unit second.

Illustrative cases are given below, each with its answer.
binder="2-in-1 DARPin 12 (SEQ ID NO: 7) (designed binder, N3C mono-domain; purified by its His-tag) DLDKKLLEAARAGQDDEVRILLKAGADVNAKDSTGWTPLHLAAPWGHPEIVEVLLKAGADVNAKDVYGWTPLHLAAAAGHLEIVEVLLKAGADVNAKDWLGWTPLHLAASHGHLEIVEVLLKAGADVNAQDKSGKTPADLAARAGHQDIAEVLQKAA" experimental_value="1.3 nM"
binder="2-in-1 DARPin 15 (SEQ ID NO: 9) (designed binder, N3C mono-domain; purified by its His-tag) DLDKKLLEAARAGQDDEVRILLKAGADVNAKDSTGWTPLHLAAPWGHPEIVEVLLKAGADVNAKDFQGWTPLHLAAAAGHLEIVEVLLKAGADVNAKDWLGWTPLHLAASHGHLEIVEVLLKAGADVNAQDKSGKTPADLAARAGHQDIAEVLQKAA" experimental_value="1360 nM"

Now look at this entry.
Q: Given the binder α-CD3 DARPin-blocker (SEQ ID NO: 2) (designed binder) DLGKKLLQAARAGQLDEVRELLKAGADVNAKDAKGLTPLHLAAYHGHLEIVEVLLKAGADVNAKDVYGWTPLHIAAASGHLEIVEVLLKAGADVNAKDWLGWTPLHLAASHGHLEIVEVLLKAGADVNAQDKSGKTPADLAARAGHQDIAEVLQKAA , what is its reported Kd?
Ans: 0.11 nM
